subject of test: RXFP1 (Homo sapiens)
Construct: expressed in transfected cells; host or cells: HEK293
Sequence (Q9HBX9 1-757): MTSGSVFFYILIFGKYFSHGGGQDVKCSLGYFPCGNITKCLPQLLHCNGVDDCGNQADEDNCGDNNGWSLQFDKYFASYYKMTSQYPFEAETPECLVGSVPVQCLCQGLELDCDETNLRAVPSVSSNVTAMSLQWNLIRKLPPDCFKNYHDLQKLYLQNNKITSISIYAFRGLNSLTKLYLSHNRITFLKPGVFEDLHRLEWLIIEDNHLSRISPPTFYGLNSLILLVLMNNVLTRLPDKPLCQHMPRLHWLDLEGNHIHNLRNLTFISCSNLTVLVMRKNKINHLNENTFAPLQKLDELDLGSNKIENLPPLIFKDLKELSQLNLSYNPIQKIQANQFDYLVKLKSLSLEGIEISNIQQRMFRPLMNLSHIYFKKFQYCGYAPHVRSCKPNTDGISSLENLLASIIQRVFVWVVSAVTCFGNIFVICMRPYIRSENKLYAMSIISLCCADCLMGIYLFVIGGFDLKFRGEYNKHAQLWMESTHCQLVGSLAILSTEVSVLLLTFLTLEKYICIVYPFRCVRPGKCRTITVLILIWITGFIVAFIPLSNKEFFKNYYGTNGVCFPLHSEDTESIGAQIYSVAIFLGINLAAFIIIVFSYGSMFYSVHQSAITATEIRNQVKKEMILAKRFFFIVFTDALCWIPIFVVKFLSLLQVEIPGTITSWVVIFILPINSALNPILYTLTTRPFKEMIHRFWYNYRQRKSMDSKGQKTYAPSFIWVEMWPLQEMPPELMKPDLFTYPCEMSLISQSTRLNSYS
assay details: Serelaxin in vitro activity assay #1: cAMP HTRF in RXFP1-HEK293 cells
Assay type: cell-based
assay conditions: DMEM:F12 media
measurement type: pEC50
Answers are plain numbers, as −log10 of the molar value.

*Q* Please look at this substance and report its pEC50: Serelaxin: Recombinant 1-chain human relaxin (DSWMEEVIKLCGRELVRAQIAICGMSTWSCFRALSRKTCGVHCCKNALASYLE; Serelaxin Sequence)
*A* 8.95
